Values from patent US8475772B2

Please respond with reported Phage Titer for every item in the list.
test: Titer-based phage binding assay on normal hair
Set-up: species or system human
run conditions: output pfu retained by 10 mg normal hair; input 10^14 pfu of phage clone; acid-eluted phage
Description: Phage clones displaying specific peptides were used for comparing the binding characteristics of different peptide sequences. A titer-based assay was used to quantify the phage binding. This assay measures the output pfu retained by 10 mg of hair surfaces, having a signal to noise ratio of 10^3 to 10^4. The input for all the phage clones was 10^14 pfu. It should be emphasized that this assay measures the peptide-expressing phage particle, rather than peptide binding. […]

Each of the following entries comes with a recorded value; kindly state Phage Titer for each.
1. HPVWPAI [Clone D]
2. HLTVPWRGGGSAVPFYSHSQITLPNH (Hair-binding peptide) [Clone F]
3. GPHDTSSGGVRPNLHHTSKKEKRENRKVPFYSHSVTSRGNV (Hair-binding peptide) [Clone D5]
4. HPMSAPR (Hair-binding peptide) [Clone I]

8.20 × 10^4
1.11 × 10^6
1.67 × 10^8
1.17 × 10^6

Could I get Phage Titer for every one of these entries?
1. KHPTYRQ [Clone H]
2. MPKYYLQ [Clone J]
3. MPLYYLQ [Clone E]
4. DLHTVYH [Clone A]
5. HIKPPTR [Clone B]

1.30 × 10^6
1.24 × 10^6
1.70 × 10^5
7.50 × 10^4
1.21 × 10^5
